Test: gradient 5% acetonitrile 3 min, to 50% in 2 min, to 85% in 15 min, held 3 min, 100 µL/min
Details: column: Zorbax Extend-C18 2.1 x 50 mm; eluents: water / acetonitrile, 0.1% formic acid
Please go through the items and note down their RP-LC retention time.
Numbers only, in s.

Examples from the recorded data:
CC(C)n1nccc1-c1csc(S(=O)(=O)N2CCC3(CC2)OCCO3)c1	922
CC(=O)N1c2ccc(S(=O)(=O)N3CCCCCC3)cc2CC1C(=O)NCCc1ccccc1 (stereo not drawn)	918
CCS(=O)(=O)N1CCCc2cc(C(=O)NCCOC)ccc21	682

Batch: RP-LC retention time for all items listed.
1. CN1CCN(c2ccc(-c3cccc(NC(=O)c4ccccc4F)c3)nn2)CC1
2. Cc1ccccc1NC(=O)Cn1cnc2onc(C)c2c1=O

Solution:
1. 693
2. 718

Batch: RP-LC retention time for all items listed.
1. Cc1ccc(CNC(=O)Cn2c(C(C)C)nc3c(c2=O)CN(Cc2ccccc2)CC3)cc1
2. CC(Oc1ccccc1Cl)C(=O)NCCn1nc(-n2cccn2)ccc1=O (stereo not drawn)
3. O=C(CCNc1c(-c2ccccc2)nc2cnccn12)NCc1cccc(F)c1

Solution:
1. 694
2. 710
3. 698

----------
Experiment: gradient 5% acetonitrile 3 min, to 50% in 2 min, to 85% in 15 min, held 3 min, 100 µL/min
Details: column: Zorbax Extend-C18 2.1 x 50 mm; eluents: water / acetonitrile, 0.1% formic acid
Please go through the items and note down their RP-LC retention time.
Answers are plain numbers, in s.

O=C(Nc1ccc2c(c1)OCCO2)C1CCCN(C(=O)c2ccc(Cl)cc2)C1 (centres undefined)	815
CN(C1CCc2nn(CC3CC3)c(=O)n2CC1)S(=O)(=O)c1ccccc1C(F)(F)F (centres undefined)	831
Cn1nc(C(=O)Nc2ccccc2)c2c1CCN(C(=O)Nc1cccc(Br)c1)C2	914

Exercise: Quick one: RP-LC retention time of CC1CCCN(c2nc(=O)n(CC(=O)Nc3ccc4c(c3)OCCO4)c3ccccc23)C1 (centres undefined) ?
Solution: 780

----------
Please go through the items and note down their RP-LC retention time.
Experiment: gradient 5% acetonitrile 3 min, to 50% in 2 min, to 85% in 15 min, held 3 min, 100 µL/min
Details: column: Zorbax Extend-C18 2.1 x 50 mm; eluents: water / acetonitrile, 0.1% formic acid
Numbers only, in s.

Cc1noc(C2CN(C(=O)Nc3c(C)cccc3C)CC23CCOCC3)n1 (configuration not stated)	693
COc1ccc(OCC(=O)NCc2cc(-c3cc4ccccc4o3)on2)cc1	893
CCc1cccc(C)c1Nc1c(-c2ccc(F)cc2)nc2ncccn12	886
Cc1nc([C@@H]2CN(C(=O)CCc3nc4ccccc4s3)C[C@H]2C(N)=O)n[nH]1	599
CCOC(=O)C1CCCN(C(=O)CCC2CCCN(c3cc(NC4CC4)ncn3)C2)C1 (configuration not stated)	666

Batch: RP-LC retention time for all items listed.
1. COc1ccccc1N1CCN(C(=O)C2CC(=O)N(c3ccc4oc(C)nc4c3)C2)CC1 (configuration not stated)
2. CCCCCCC(=O)OC1CC(C)(C)NC(C)(C)C1
3. Cc1cc(Cl)ccc1NC(=O)C1CCN(c2c(C(=O)N3CCOCC3)cnc3snc(C)c23)CC1
4. COc1ccc(N2CCCn3c2nc2c3c(=O)n(CC(=O)O)c(=O)n2C)cc1

Solution:
[693, 707, 847, 660]

Source listed as the METLIN SMRT retention time set (Domingo-Almenara et al. 2019).
